Molecular target: EGFR L858R (Homo sapiens, UniProt P00533, L858R)
Construct: purchased SignalChem E10-122BG
Sequence (P00533 25-1210 L858R): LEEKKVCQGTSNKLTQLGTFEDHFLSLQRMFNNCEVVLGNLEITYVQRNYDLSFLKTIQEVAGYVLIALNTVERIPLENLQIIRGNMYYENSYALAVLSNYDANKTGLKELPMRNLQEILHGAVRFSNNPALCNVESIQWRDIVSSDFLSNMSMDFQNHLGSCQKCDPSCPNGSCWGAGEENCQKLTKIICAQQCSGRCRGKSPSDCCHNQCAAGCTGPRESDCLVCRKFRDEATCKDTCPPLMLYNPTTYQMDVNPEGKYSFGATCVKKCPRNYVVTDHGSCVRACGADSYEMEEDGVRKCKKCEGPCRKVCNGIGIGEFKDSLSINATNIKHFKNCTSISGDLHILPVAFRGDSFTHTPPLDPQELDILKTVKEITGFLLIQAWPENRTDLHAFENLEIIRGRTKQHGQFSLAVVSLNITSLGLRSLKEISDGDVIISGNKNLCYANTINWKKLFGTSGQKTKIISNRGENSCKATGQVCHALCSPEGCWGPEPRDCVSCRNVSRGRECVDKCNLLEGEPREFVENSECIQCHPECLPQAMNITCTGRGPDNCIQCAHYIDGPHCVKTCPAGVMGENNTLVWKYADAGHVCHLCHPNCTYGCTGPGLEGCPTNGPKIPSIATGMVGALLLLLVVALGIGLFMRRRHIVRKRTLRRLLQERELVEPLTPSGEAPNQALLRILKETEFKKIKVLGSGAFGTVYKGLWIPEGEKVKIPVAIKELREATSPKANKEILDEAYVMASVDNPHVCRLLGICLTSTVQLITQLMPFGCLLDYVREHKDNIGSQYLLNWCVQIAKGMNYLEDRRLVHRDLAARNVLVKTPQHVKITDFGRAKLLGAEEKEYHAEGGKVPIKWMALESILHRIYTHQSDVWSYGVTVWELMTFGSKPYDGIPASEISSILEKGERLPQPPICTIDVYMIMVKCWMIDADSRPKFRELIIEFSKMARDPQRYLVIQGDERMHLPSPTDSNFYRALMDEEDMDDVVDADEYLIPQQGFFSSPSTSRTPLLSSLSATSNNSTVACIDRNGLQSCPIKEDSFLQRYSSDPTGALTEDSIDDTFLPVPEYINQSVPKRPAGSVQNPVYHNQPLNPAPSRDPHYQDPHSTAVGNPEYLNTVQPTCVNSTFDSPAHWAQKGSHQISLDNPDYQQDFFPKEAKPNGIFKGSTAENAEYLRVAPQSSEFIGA
Experiment: Biochemical EGFR inhibition assay (Caliper mobility shift), EGFR L858R
Settings: biochemical Caliper mobility shift assay, EGFR L858R enzyme; read-out: Enz EGFR L858R IC50
readoutKind: IC50

Before answering, review these 4 worked examples.
{"molecule": "Cn1cc(-c2cc(OCC(=O)N3CCOCC3)c3c(Nc4ccc5ncsc5c4)ncnc3c2)cn1", "testTarget": "EGFR L858R (Homo sapiens, UniProt P00533, L858R)", "IC50": "≤ 10 nM"}
{"molecule": "CC(C)Oc1cc(-c2cnn(C)c2)cc2ncnc(Nc3ccc4scnc4c3)c12", "testTarget": "EGFR L858R (Homo sapiens, UniProt P00533, L858R)", "IC50": "≤ 10 nM"}
{"molecule": "C[C@H](CO)Oc1cc(-c2cnn(C)c2)cc2ncnc(Nc3ccc4ncsc4c3F)c12 (single isomer, unassigned) [Example 289]", "testTarget": "EGFR L858R (Homo sapiens, UniProt P00533, L858R)", "IC50": "≤ 10 nM"}
{"molecule": "COc1cc(O[C@H](C)C2COC2)c2c(Nc3ccc4ncsc4c3)ncnc2c1", "testTarget": "EGFR L858R (Homo sapiens, UniProt P00533, L858R)", "IC50": "≤ 10 nM"}

query: Any idea what IC50 was measured for "Cn1cc(-c2cc(OC3CC4(COC4)C3)c3c(Nc4ccc5ncsc5c4)ncnc3c2)cn1" ?
result: ≤ 10 nM

query: Can you handle "CN1CCN(C(=O)Oc2cc(OC3CCOCC3)c3c(Nc4ccc5ncsc5c4)ncnc3c2)CC1" next?
result: > 50.1 nM

====

Target: intracellular phosphorylation of EGFR (Tyr1068) in PC-9 cells (Homo sapiens, UniProt P00533, DEL746-750)
Sequence (P00533 with tags, fused parts or gaps DEL746-750): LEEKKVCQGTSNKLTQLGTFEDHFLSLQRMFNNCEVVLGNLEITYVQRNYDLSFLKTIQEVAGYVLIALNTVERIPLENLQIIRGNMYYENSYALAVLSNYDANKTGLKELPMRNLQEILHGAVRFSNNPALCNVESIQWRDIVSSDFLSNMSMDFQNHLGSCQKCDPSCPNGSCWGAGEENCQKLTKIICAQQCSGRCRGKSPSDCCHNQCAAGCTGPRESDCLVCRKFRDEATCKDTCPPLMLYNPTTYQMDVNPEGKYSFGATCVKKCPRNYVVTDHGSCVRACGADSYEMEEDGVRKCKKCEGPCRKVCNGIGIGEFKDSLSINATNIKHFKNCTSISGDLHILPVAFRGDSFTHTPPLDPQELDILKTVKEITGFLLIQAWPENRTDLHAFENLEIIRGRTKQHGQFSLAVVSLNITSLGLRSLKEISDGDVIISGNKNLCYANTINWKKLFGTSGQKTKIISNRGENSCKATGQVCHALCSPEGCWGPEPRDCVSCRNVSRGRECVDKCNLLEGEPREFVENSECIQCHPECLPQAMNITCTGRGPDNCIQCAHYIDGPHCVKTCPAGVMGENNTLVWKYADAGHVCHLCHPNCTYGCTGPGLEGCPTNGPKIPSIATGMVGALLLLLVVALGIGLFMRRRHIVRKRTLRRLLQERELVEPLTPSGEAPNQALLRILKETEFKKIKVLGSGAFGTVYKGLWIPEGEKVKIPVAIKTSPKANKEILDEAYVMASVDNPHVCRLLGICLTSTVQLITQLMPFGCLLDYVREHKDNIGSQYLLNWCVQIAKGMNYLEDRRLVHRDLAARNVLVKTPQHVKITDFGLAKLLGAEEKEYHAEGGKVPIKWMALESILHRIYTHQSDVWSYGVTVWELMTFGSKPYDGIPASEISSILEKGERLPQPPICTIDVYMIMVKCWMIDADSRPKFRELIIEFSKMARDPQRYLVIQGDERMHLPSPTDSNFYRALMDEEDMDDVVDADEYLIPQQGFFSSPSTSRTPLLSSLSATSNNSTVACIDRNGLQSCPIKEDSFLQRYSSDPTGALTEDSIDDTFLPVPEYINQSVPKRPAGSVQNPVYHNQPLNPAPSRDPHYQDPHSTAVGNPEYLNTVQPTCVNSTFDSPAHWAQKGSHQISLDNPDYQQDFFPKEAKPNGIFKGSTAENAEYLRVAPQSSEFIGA
Assay: PC-9 pEGFR AlphaLISA assay
Conditions: 4 hours incubation, read-out: Phos EGFR PC9 IC50
readoutKind: IC50

Before answering, review these 4 worked examples.
{"molecule": "COc1nn(C)cc1-c1cc(O[C@H](C)C2COC2)c2c(Nc3ccc4ncsc4c3)ncnc2c1 (single isomer, unassigned)", "IC50": "≤ 10 nM"}
{"molecule": "COc1nn(C)cc1-c1cc(O[C@H]2CN(C)C[C@@H]2F)c2c(Nc3ccc4ncsc4c3)ncnc2c1 (single isomer, unassigned) [Example 377]", "IC50": "10.1 to 50 nM"}
{"molecule": "COCCOc1cc(O[C@H](C)C2COC2)c2c(Nc3ccc4ncsc4c3F)ncnc2c1 (single isomer, unassigned) [Example 85]", "IC50": "10.1 to 50 nM"}
{"molecule": "CC(C)(O)Cn1cc(-c2cc(OC3CCOCC3)c3c(Nc4ccc5ncsc5c4)ncnc3c2)cn1", "IC50": "≤ 10 nM"}

query: Any idea what IC50 was measured for C[C@@H](CN(C)C)Oc1cc(N2CCN(C)CC2)cc2ncnc(Nc3ccc4ncsc4c3)c12 (single isomer, unassigned) [Example 116] ?
result: > 50.1 nM

query: Can you handle "C[C@H](CN(C)C)Oc1cc(N2CC[C@H](C(C)(C)O)C2)cc2ncnc(Nc3ccc4ncsc4c3)c12" next?
result: ≤ 10 nM

query: Can you handle Cn1cc(-c2cc(OCC3CCOC3)c3c(Nc4ccc5ncsc5c4)ncnc3c2)cn1 (single isomer, unassigned) [Example 42] next?
result: 10.1 to 50 nM

====

Target: intracellular phosphorylation of EGFR (Tyr1068) in PC-9 cells (Homo sapiens, UniProt P00533, DEL746-750)
Assay: PC-9 pEGFR AlphaLISA assay
Settings: 4 hours incubation, read-out: Phos EGFR PC9 IC50
readoutKind: IC50

query: Any idea what IC50 was measured for "COc1nn(C)cc1-c1cc(O[C@@H]2CCN(C)C[C@@H]2F)c2c(Nc3ccc4ncsc4c3)ncnc2c1" ?
result: ≤ 0.01 µM

query: Can you handle "Cn1cc(-c2cc(O[C@@H]3CC[C@H](O)C3)c3c(Nc4ccc5ncsc5c4)ncnc3c2)cn1" next?
result: ≤ 0.01 µM

query: Can you handle "C[C@H](CN1CCC1)Oc1cc(-c2cnn(C)c2)cc2ncnc(Nc3ccc4ncsc4c3)c12" next?
result: ≤ 0.01 µM

query: Can you handle C[C@H](CO)Oc1cc(N2CCN(C)CC2)cc2ncnc(Nc3ccc4ncsc4c3F)c12 (single isomer, unassigned) [Example 295] next?
result: ≤ 0.01 µM

query: Can you handle "Cn1cc(-c2cc(O[C@H]3C[C@H](O)C3)c3c(Nc4ccc5ncsc5c4)ncnc3c2)cn1" next?
result: ≤ 0.01 µM

====

Target: intracellular phosphorylation of EGFR (Tyr1068) in PC-9 cells (Homo sapiens, UniProt P00533, DEL746-750)
Test: PC-9 pEGFR AlphaLISA assay
Conditions: 4 hours incubation, read-out: Phos EGFR PC9 IC50
readoutKind: IC50

Before answering, review these 6 worked examples.
{"compound": "Cn1cc(-c2cc(OCC(=O)N3CC4(COC4)C3)c3c(Nc4ccc5ncsc5c4F)ncnc3c2)cn1 [Example 277]", "result": "≤ 10 nM"}
{"compound": "C[C@@H](Oc1cc(-c2cnn(C)c2)cc2ncnc(Nc3ccc4ncsc4c3)c12)C(F)F (single isomer, unassigned) [Example 52]", "result": "≤ 10 nM"}
{"compound": "C[C@H]1[C@H](Oc2cc(-c3cnn(C)c3)cc3ncnc(Nc4ccc5ncsc5c4)c23)CN1C (single isomer, unassigned) [Example 321]", "result": "10.1 to 50 nM"}
{"compound": "C[C@@H](Oc1cc(-c2cnn(C)c2)cc2ncnc(Nc3ccc4ncsc4c3F)c12)C1CCOCC1 (single isomer, unassigned) [Example 111]", "result": "≤ 10 nM"}
{"compound": "CC(Oc1cc(-c2cn[nH]c2)cc2ncnc(Nc3ccc4ncsc4c3)c12)C1COC1 (single isomer, unassigned) [Example 122]", "result": "≤ 10 nM"}
{"compound": "CC(C)Oc1cc(-c2cnn(C)c2)cc2ncnc(Nc3ccc4ncsc4c3)c12 [Example 405]", "result": "≤ 10 nM"}

Please turn your attention to the following entry.
query: Any idea what IC50 was measured for CN(C)[C@H]1CC[C@@H]1Oc1cc(-c2cnn(C)c2)cc2ncnc(Nc3ccc4ncsc4c3)c12 (single isomer, unassigned) [Example 154] ?
result: ≤ 10 nM

====

Biological target: intracellular phosphorylation of EGFR (Tyr1068) in PC-9 cells (Homo sapiens, UniProt P00533, DEL746-750)
Assay: PC-9 pEGFR AlphaLISA assay
Conditions: 4 hours incubation, read-out: Phos EGFR PC9 IC50
pIC50: −log10 of the molar value.
readoutKind: pIC50

{"compound": "C[C@@H](CN(C)C)Oc1cc(N2CCN(C)CC2)cc2ncnc(Nc3ccc4ncsc4c3)c12 (single isomer, unassigned) [Example 117]", "result": "7.30 to 8.00"}

query: Any idea what pIC50 was measured for CN1CC[C@H](Oc2cc(-c3cnn(C)c3)cc3ncnc(Nc4ccc5ncsc5c4)c23)C1=O (single isomer, unassigned) [Example 24] ?
result: 7.30 to 8.00

query: Can you handle Cn1cc(-c2cc(O[C@H]3CCNC[C@@H]3F)c3c(Nc4ccc5ncsc5c4)ncnc3c2)cn1 (single isomer, unassigned) [Example 346] next?
result: ≥ 8.00

query: Can you handle C[C@H](CN(C)C)Oc1cc(N2CCOCC2)cc2ncnc(Nc3ccc4ncsc4c3F)c12 [Example 183] next?
result: 7.30 to 8.00

====

Catalogue of pIC50 readings, one per entry.
Biological target: intracellular phosphorylation of EGFR (Tyr1068) in PC-9 cells (Homo sapiens, UniProt P00533, DEL746-750)
Assay: PC-9 pEGFR AlphaLISA assay
Conditions: 4 hours incubation, read-out: Phos EGFR PC9 IC50
pIC50: −log10 of the molar value.

Before answering, review these 3 worked examples.
{"compound": "CN1CC[C@H](Oc2cc(-c3cnn(C)c3)cc3ncnc(Nc4ccc5ncsc5c4F)c23)C1=O (single isomer, unassigned) [Example 72]", "pIC50": "≥ 8.00"}
{"compound": "Cn1cc(-c2cc(OC3COC3)c3c(Nc4ccc5ncsc5c4)ncnc3c2)c(OC(F)F)n1", "pIC50": "7.30 to 8.00"}
{"compound": "COc1nn(C)cc1-c1cc(OC2CCN(CC(F)F)CC2)c2c(Nc3ccc4ncsc4c3)ncnc2c1", "pIC50": "≥ 8.00"}

query: Any idea what pIC50 was measured for "CN1CCN(C(=O)COc2cc(-c3cnn(C)c3)cc3ncnc(Nc4ccc5ncsc5c4F)c23)CC1" ?
result: 7.30 to 8.00

====

Biological target: EGFR L858R (Homo sapiens, UniProt P00533, L858R)
Construct: purchased SignalChem E10-122BG
Test: Biochemical EGFR inhibition assay (Caliper mobility shift), EGFR L858R
Settings: biochemical Caliper mobility shift assay, EGFR L858R enzyme; read-out: Enz EGFR L858R IC50
readoutKind: IC50

{"molecule": "Cn1cc(-c2cc(OCC(=O)N3CC4(COC4)C3)c3c(Nc4ccc5ncsc5c4)ncnc3c2)cn1 [Example 270]", "testTarget": "EGFR L858R (Homo sapiens, UniProt P00533, L858R)", "result": "≤ 10 nM"}
{"molecule": "C[C@H]1[C@H](Oc2cc(-c3cnn(C)c3)cc3ncnc(Nc4ccc5ncsc5c4)c23)CN1C (single isomer, unassigned) [Example 321]", "testTarget": "EGFR L858R (Homo sapiens, UniProt P00533, L858R)", "result": "10.1 to 50 nM"}
{"molecule": "CN1CCC(Oc2cc(-c3cn(C)n(C(F)F)c3=O)cc3ncnc(Nc4ccc5ncsc5c4)c23)CC1 [Example A17]", "testTarget": "EGFR L858R (Homo sapiens, UniProt P00533, L858R)", "result": "10.1 to 50 nM"}
{"molecule": "CN1CC[C@H](Oc2cc(-c3cnn(C)c3)cc3ncnc(Nc4ccc5ncsc5c4)c23)[C@@H](O)C1 (single isomer, unassigned) [Example A35]", "testTarget": "EGFR L858R (Homo sapiens, UniProt P00533, L858R)", "result": "≤ 10 nM"}
{"molecule": "CN1CCC[C@@H](Oc2cc(-c3cnn(C)c3)cc3ncnc(Nc4ccc5ncsc5c4)c23)C1 (single isomer, unassigned) [Example 47]", "testTarget": "EGFR L858R (Homo sapiens, UniProt P00533, L858R)", "result": "≤ 10 nM"}

query: Any idea what IC50 was measured for COc1cc2ncnc(Nc3ccc4ncsc4c3)c2cc1NC(=O)C1CN(C)C1 [Example 402] ?
result: > 50.1 nM

query: Can you handle CN(C)[C@H]1CC[C@@H]1Oc1cc(-c2cnn(C)c2)cc2ncnc(Nc3ccc4ncsc4c3)c12 (single isomer, unassigned) [Example 154] next?
result: ≤ 10 nM

query: Can you handle COc1cc2c(Nc3ccc4ncsc4c3F)ncnc2cc1-c1cn(C)nc1OC [Example 264] next?
result: ≤ 10 nM

query: Can you handle C[C@@H](Oc1cc(-c2cnn(C)c2)cc2ncnc(Nc3ccc4ncsc4c3)c12)[C@H]1CN(C)CCO1 (single isomer, unassigned) [Example 209] next?
result: ≤ 10 nM

query: Can you handle CN1CC[C@H](O)[C@@H](Oc2cc(-c3cnn(C)c3)cc3ncnc(Nc4ccc5ncsc5c4)c23)C1 (single isomer, unassigned) [Example A34] next?
result: 10.1 to 50 nM

query: Can you handle Cc1cn(-c2cc(OC(C)CN(C)C)c3c(Nc4ccc5ncsc5c4)ncnc3c2)c(=O)n1C (stereo not shown) [Example 203] next?
result: 10.1 to 50 nM

query: Can you handle C[C@H](CO)Oc1cc(N2CCN(C)CC2)cc2ncnc(Nc3ccc4ncsc4c3)c12 (single isomer, unassigned) [Example 293] next?
result: ≤ 10 nM

query: Can you handle COc1cc2ncnc(Nc3ccc4ncsc4c3)c2cc1-c1cnn(C2CCN(C)C[C@H]2F)c1 (single isomer, unassigned) [Example 167] next?
result: 10.1 to 50 nM

query: Can you handle COc1cc2ncnc(Nc3ccc4ncsc4c3F)c2cc1-c1cnn(C2CCN(C)CC2)c1 [Example 240] next?
result: ≤ 10 nM

query: Can you handle Cn1cc(-c2cc(OC3CCCOC3)c3c(Nc4ccc5ncsc5c4)ncnc3c2)cn1 (single isomer, unassigned) [Example 7] next?
result: ≤ 10 nM

query: Can you handle Cn1cc(-c2cc(OC3COCOC3)c3c(Nc4ccc5ncsc5c4)ncnc3c2)cn1 [Example A59] next?
result: ≤ 10 nM
